FYI, the data here is from PubChem BioAssay (Tox21).

ASSAY: Caspase-3/7 induction in HepG2 cells by small molecules, qHTS cell viability counter screen (AID 1346981); note: nearly all actives have a fitted effect of over 30% in size
COND: CellTiter-Fluor fluorescence, 17 h; series mostly up to 92.4 µM
Inconclusive results are not listed. The source made the active and inactive calls. Calls come from the whole dose curve; as a rule, active = well fitted cell-killing curve with a large enough effect in the repeat runs; inconclusive = weak or mixed curves, or effect the other way; inactive = flat fitted curve, though single readings scatter.
Choose the fitting class; nothing outside active, inactive is accepted.

Example results:
CCC(C)(C)O = inactive
CC(C)[C@@H](C(=O)O[C@@H](C#N)c1cccc(Oc2ccccc2)c1)c1ccc(Cl)cc1 = inactive
C[N+](C)(C)CC1CO1 (configuration not stated) = inactive
CCOC(C(=O)OCCN(C)C)(c1ccccc1)c1ccccc1 = inactive
C[C@]12CC[C@H]3[C@@H](CCC4=CC(=O)CC[C@@H]43)[C@@H]1CC[C@@H]2OC(=O)CCc1ccccc1 = inactive

## Input What call does the record list for NP(N)(=O)NC(=O)c1ccc(F)cc1 ?
## Output inactive

## Input How did this test come out for CCOc1cccc(C2(N3CCN(c4ccccc4)CC3)CCC(C)CC2)c1 (configuration not stated) ?
## Output inactive

## Input What outcome does the record of this test show for Cc1ccccc1 ?
## Output inactive

## Input // param item: CC(C)(C)CC(C)(C)c1ccc(O)cc1 ; yields the recorded call
## Output active

## Input GET /call?item= CCCC[N+](CCCC)(CCCC)CCCC returns the recorded outcome of this test.
## Output inactive

## Input Record lookup: outcome of this test for CCCC[P+](CC)(CCCC)CCCC (tested in a mixture with another compound) ?
## Output inactive

## Input Assay outcome for CC(CC(C(N)=O)(c1ccccc1)c1ccccc1)N(C)C (configuration not stated) : what was it?
## Output inactive
